ASSAY_SUMMARY: Plasma pharmacokinetic parameters (LC-MS/MS)
CONDITIONS_USED: human, plasma, oral, 400 mg, Total Ribociclib T1/2, plasma, Median
RECORDED_ENDPOINT: half-life (min)

                                 mol_smiles  measured_number
0  CN(C)C(=O)c1cc2cnc(Nc3ccc(N4CCNCC4)cn3)nc2n1C1CCCC1              682

---

ASSAY_SUMMARY: Plasma pharmacokinetic parameters (LC-MS/MS)
CONDITIONS_USED: human, plasma, oral, 5 mg, AUClast, total everolimus plasma; median
Procedure: Pharmacokinetic evaluation was conducted as previously described[8] using a validated liquid chromatography with tandem mass spectrometry (LC-MS/MS) method.[16] […] CSF samples were intraoperatively collected.
RECORDED_ENDPOINT: AUC(0-t) (µM·h)

MOL_SMILES	MEASURED_NUMBER
CO[C@H]1C[C@@H]2CC[C@@H](C)[C@@](O)(O2)C(=O)C(=O)N2CCCC[C@H]2C(=O)O[C@H]([C@H](C)C[C@@H]2CC[C@@H](OCCO)[C@H](OC)C2)CC(=O)[C@H](C)/C=C(\C)[C@@H](O)[C@@H](OC)C(=O)[C@H](C)C[C@H](C)/C=C/C=C/C=C/1C	0.5

---

ASSAY_SUMMARY: CNS penetration: total and unbound drug concentrations in tumor regions, CSF and plasma (LC-MS/MS, equilibrium dialysis)
CONDITIONS_USED: human, non-enhancing tumor, oral, Total Ribociclib concentration, Median, 400 mg QD 5 days
RECORDED_ENDPOINT: concentration at 5 days (µM)

>>> print(df.to_string())
                                 mol_smiles  unit_symbol  measured_number
0  CN(C)C(=O)c1cc2cnc(Nc3ccc(N4CCNCC4)cn3)nc2n1C1CCCC1           µM             3.13

---

ASSAY_SUMMARY: CNS penetration: total and unbound drug concentrations in tumor regions, CSF and plasma (LC-MS/MS, equilibrium dialysis)
CONDITIONS_USED: human, CSF / plasma, oral, 400 mg
RECORDED_ENDPOINT: Kp uu at 120 h

                                   compound  recorded_endpoint  measured_number
0  CN(C)C(=O)c1cc2cnc(Nc3ccc(N4CCNCC4)cn3)nc2n1C1CCCC1 [Ribociclib, ribociclib]     Kp uu at 120 h             1.15

---

ASSAY_SUMMARY: CNS penetration: total and unbound drug concentrations in tumor regions, CSF and plasma (LC-MS/MS, equilibrium dialysis)
CONDITIONS_USED: human, enhancing tumor, oral, Total everolimus, MED, 70 mg single dose
RECORDED_ENDPOINT: concentration at 5 days (nM)

COMPOUND	MEASURED_NUMBER
CO[C@H]1C[C@@H]2CC[C@@H](C)[C@@](O)(O2)C(=O)C(=O)N2CCCC[C@H]2C(=O)O[C@H]([C@H](C)C[C@@H]2CC[C@@H](OCCO)[C@H](OC)C2)CC(=O)[C@H](C)/C=C(\C)[C@@H](O)[C@@H](OC)C(=O)[C@H](C)C[C@H](C)/C=C/C=C/C=C/1C [Everolimus, everolimus]	71.8

---

ASSAY_SUMMARY: Plasma pharmacokinetic parameters (LC-MS/MS)
CONDITIONS_USED: human, plasma, oral, 10 mg, AUClast, total everolimus plasma; mean

MOL_SMILES	AUC(0-t) [µM·h]
CO[C@H]1C[C@@H]2CC[C@@H](C)[C@@](O)(O2)C(=O)C(=O)N2CCCC[C@H]2C(=O)O[C@H]([C@H](C)C[C@@H]2CC[C@@H](OCCO)[C@H](OC)C2)CC(=O)[C@H](C)/C=C(\C)[C@@H](O)[C@@H](OC)C(=O)[C@H](C)C[C@H](C)/C=C/C=C/C=C/1C	0.9

---

ASSAY_SUMMARY: Plasma pharmacokinetic parameters (LC-MS/MS)
CONDITIONS_USED: human, plasma, oral, 70 mg, Cmax, total everolimus plasma; median

MOL_SMILES	Cmax
CO[C@H]1C[C@@H]2CC[C@@H](C)[C@@](O)(O2)C(=O)C(=O)N2CCCC[C@H]2C(=O)O[C@H]([C@H](C)C[C@@H]2CC[C@@H](OCCO)[C@H](OC)C2)CC(=O)[C@H](C)/C=C(\C)[C@@H](O)[C@@H](OC)C(=O)[C@H](C)C[C@H](C)/C=C/C=C/C=C/1C	120 nM

---

ASSAY_SUMMARY: CNS penetration: total and unbound drug concentrations in tumor regions, CSF and plasma (LC-MS/MS, equilibrium dialysis)
CONDITIONS_USED: human, CSF / plasma, oral, 600 mg
RECORDED_ENDPOINT: Kp uu at 120 h

>>> print(df.to_string())
                                 mol_smiles  measured_number
0  CN(C)C(=O)c1cc2cnc(Nc3ccc(N4CCNCC4)cn3)nc2n1C1CCCC1             0.84

---

ASSAY_SUMMARY: Plasma pharmacokinetic parameters (LC-MS/MS)
CONDITIONS_USED: human, plasma, oral, 10 mg, Tmax, total everolimus plasma; median
RECORDED_ENDPOINT: Tmax (h)

COMPOUND	MEASURED_NUMBER
CO[C@H]1C[C@@H]2CC[C@@H](C)[C@@](O)(O2)C(=O)C(=O)N2CCCC[C@H]2C(=O)O[C@H]([C@H](C)C[C@@H]2CC[C@@H](OCCO)[C@H](OC)C2)CC(=O)[C@H](C)/C=C(\C)[C@@H](O)[C@@H](OC)C(=O)[C@H](C)C[C@H](C)/C=C/C=C/C=C/1C [Everolimus, everolimus]	3.92

---

ASSAY_SUMMARY: CNS penetration: total and unbound drug concentrations in tumor regions, CSF and plasma (LC-MS/MS, equilibrium dialysis)
CONDITIONS_USED: human, enhancing tumor, oral, Unbound Ribociclib concentration, Maximum, 600 mg QD 5 days
RECORDED_ENDPOINT: concentration at 5 days

>>> df
                                   compound  result
0  CN(C)C(=O)c1cc2cnc(Nc3ccc(N4CCNCC4)cn3)nc2n1C1CCCC1 [Ribociclib, ribociclib]  4.5 µM

---

ASSAY_SUMMARY: Plasma pharmacokinetic parameters (LC-MS/MS)
CONDITIONS_USED: human, plasma, oral, 60 mg, AUClast, total everolimus plasma; median
RECORDED_ENDPOINT: AUC(0-t) (µM·h)

MOL_SMILES	RECORDED_ENDPOINT	UNIT_SYMBOL	MEASURED_NUMBER
CO[C@H]1C[C@@H]2CC[C@@H](C)[C@@](O)(O2)C(=O)C(=O)N2CCCC[C@H]2C(=O)O[C@H]([C@H](C)C[C@@H]2CC[C@@H](OCCO)[C@H](OC)C2)CC(=O)[C@H](C)/C=C(\C)[C@@H](O)[C@@H](OC)C(=O)[C@H](C)C[C@H](C)/C=C/C=C/C=C/1C	AUC(0-t)	µM·h	1.88

---

ASSAY_SUMMARY: Plasma pharmacokinetic parameters (LC-MS/MS)
CONDITIONS_USED: total everolimus plasma; dose 10 mg; median

COMPOUND	Cmax [µM]
CO[C@H]1C[C@@H]2CC[C@@H](C)[C@@](O)(O2)C(=O)C(=O)N2CCCC[C@H]2C(=O)O[C@H]([C@H](C)C[C@@H]2CC[C@@H](OCCO)[C@H](OC)C2)CC(=O)[C@H](C)/C=C(\C)[C@@H](O)[C@@H](OC)C(=O)[C@H](C)C[C@H](C)/C=C/C=C/C=C/1C [Everolimus, everolimus]	0.0846

---

ASSAY_SUMMARY: CNS penetration: total and unbound drug concentrations in tumor regions, CSF and plasma (LC-MS/MS, equilibrium dialysis)
CONDITIONS_USED: human, enhancing tumor, oral, Total everolimus, MAX, 60 mg single dose

MOL_SMILES	concentration at 5 days / nM
CO[C@H]1C[C@@H]2CC[C@@H](C)[C@@](O)(O2)C(=O)C(=O)N2CCCC[C@H]2C(=O)O[C@H]([C@H](C)C[C@@H]2CC[C@@H](OCCO)[C@H](OC)C2)CC(=O)[C@H](C)/C=C(\C)[C@@H](O)[C@@H](OC)C(=O)[C@H](C)C[C@H](C)/C=C/C=C/C=C/1C	87.6

---

ASSAY_SUMMARY: CNS penetration: total and unbound drug concentrations in tumor regions, CSF and plasma (LC-MS/MS, equilibrium dialysis);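 further: drug levels in patient tumor tissue from contrast-enhancing and non-enhancing regions sampled under MRI-guided neuronavigation, with plasma and CSF drawn during surgical resection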
CONDITIONS_USED: human, CSF, oral, Unbound Ribociclib concentration, Maximum, 400 mg QD 5 days
RECORDED_ENDPOINT: concentration at 5 days

In [3]: df
Out[3]:
                                 mol_smiles        recorded_endpoint  result
0  CN(C)C(=O)c1cc2cnc(Nc3ccc(N4CCNCC4)cn3)nc2n1C1CCCC1  concentration at 5 days  201 nM
